Reported pKd values for the following binders.
- EXPERIMENTAL TARGET: BgaD-D active site mutant E447Q (Bacillus circulans ATCC 31382)
- TEST METHOD NOTES: bead assay, purified proteins, target given as BgaD-D/EQ, titrated 0-1000 nM shown, 1:1 fit [panel a]
Expect pKd as a plain number equal to -log10 of the molar concentration.

Example entries begin here.
Mb(BgaD_L02) (designed binder) VSSVPTKLEVVAATPTSLLISWDANGWNYVKYYRITYGETGGNSPVQEFTVPGSSSTATISGLKPGVDYTITVYAYEYYSESSSSPISINYRT; 7.92
Mb(BgaD_S10) (designed binder) VSSVPTKLEVVAATPTSLLISWDAPAVTVVFYLITYGETGASSWPGYQEFTVPGSKSTATISGLKPGVDYTITVYAQYPWDTGSPISINYRT; 7.80
Mb(BgaD_S09) (designed binder) VSSVPTKLEVVAATPTSLLISWDAPAVTVVYYVITYGETGGNSPVQEFTVPGSKSTATISGLKPGVDYTITVYAYSDQVEYYEYFYGSPISINYRT; 6.62
Mb(BgaD_L19) (designed binder) VSSVPTKLEVVAATPTSLLISWDAFDGYWYDYVSYYRITYGETGGNSPVQEFTVPSSSSTATISGLKPGVDYTITVYAYSHSQQQYLSPISINYRT; 7.14

Record request: pKd value, item Mb(BgaD_L23) (designed binder) VSSVPTKLEVVAATPTSLLISWDAFDGYWYDYVSFYRITYGESGGNSPVQEFTVPSSSSTATISGLKPGVDYTITVYAYSHSQQQYLSPNSINYRT 7.34
